Taken from ChEMBL document CHEMBL1201862.

I'd appreciate it if you could supply GI50 values for the items below.
System: RXF 393
TEST_NAME: NCI tumour cell line growth inhibition, 48 h
Calls of active or inactive are those of the source. No stated cut-off is given here; in the data, active = GI50 up to about 1.1 µM and inactive = higher.

Any idea what GI50 was measured for CN(CCO)CCCC1COc2ccccc2O1 (stereo not drawn) ?
> 100 µM (inactive)

Any idea what GI50 was measured for COC(=O)C1=C(C(=O)OC)C2(C)C=CC1O2 (stereo not drawn) ?
20.9 µM (inactive)

Any idea what GI50 was measured for `CC1=NN(C(=O)Cc2ccccc2)C(=O)/C1=C\c1ccccc1O` ?
> 100 µM (inactive)

* * *

I'd appreciate it if you could supply GI50 values for the items below.
Test system: M14
TEST_NAME: NCI tumour cell line growth inhibition, 48 h
Active and inactive are the calls of the source. No stated cut-off is given here; in the data, active = GI50 up to about 1.1 µM and inactive = higher.

Any idea what GI50 was measured for `c1ccc(COc2nc3cc(C45CC6CC(CC(C6)C4)C5)ccc3[nH]2)cc1` ?
17.2 µM (inactive)

Any idea what GI50 was measured for `CCN(CC)/[N+]([O-])=N/OC` ?
> 100 µM (inactive)

Any idea what GI50 was measured for `Cc1nnc2sc(-c3ccc(N)cc3)nn12` ?
> 100 µM (inactive)

Any idea what GI50 was measured for `COc1ccc(/N=C/N(C)C)c(C)c1` ?
13.6 µM (inactive)

Any idea what GI50 was measured for COc1ccc(C(CC(=O)c2ccccc2)C(=O)c2ccc3c(c2)OCO3)cc1 (configuration not stated) ?
> 100 µM (inactive)

Any idea what GI50 was measured for CCCCCCCCCCCCCCCCCCNc1nc(=O)n(C2CC(OP(=O)(O)OCC3OC(n4cc(F)c(=O)[nH]c4=O)CC3O)C(CO)O2)cc1F (configuration not stated) ?
19.5 µM (inactive)

Any idea what GI50 was measured for `N#CC(C#N)=C(N)/C(C#N)=C/c1ccc2ccccc2n1` ?
33.7 µM (inactive)

Any idea what GI50 was measured for CCN1c2cc(Br)cc3[nH]c(=O)n(c23)CCC1C (configuration not stated) ?
17.2 µM (inactive)

Any idea what GI50 was measured for O=C(O)C(C1NCCS1)N1C(=O)c2ccccc2C1=O (configuration not stated) ?
> 100 µM (inactive)

Any idea what GI50 was measured for O=C1NC(c2ccc(O)cc2)C2CCC1C2 (configuration not stated) ?
> 100 µM (inactive)

Any idea what GI50 was measured for `CCc1n[nH]c(=O)n1-c1ccc2ccccc2c1` ?
> 100 µM (inactive)

Any idea what GI50 was measured for `N#Cc1cc([N+](=O)[O-])ccc1NC(=O)C(F)(F)F` ?
> 100 µM (inactive)

Any idea what GI50 was measured for CCN1CN(c2ccccc2)C2(CCN(CC(CC3OCCO3)c3ccc(F)cc3)CC2)C1=O (configuration not stated) ?
5.24 µM (inactive)

Any idea what GI50 was measured for `CC1=CCC(C)=Nc2nc3ccccc3n21` ?
> 100 µM (inactive)

Any idea what GI50 was measured for `O=[N+]([O-])c1cc2oc(COc3ccccc3)nc2cc1Cl` ?
19.5 µM (inactive)

Any idea what GI50 was measured for `CC1(C)CNC(c2ccc3c(c2)Cc2cc(C4=NC(C)(C)CN4)ccc2-3)=N1` ?
45.1 µM (inactive)

Any idea what GI50 was measured for `C=C(CN(C)C)C(=O)c1ccccc1[N+](=O)[O-]` ?
15.5 µM (inactive)

Any idea what GI50 was measured for `CCCCCCC(=O)c1ccc2ccccc2c1O` ?
58.3 µM (inactive)

Any idea what GI50 was measured for O=C1OC2c3ccccc3C(=O)C2(c2ccccc2)N1c1ccccc1 (configuration not stated) ?
> 200 µM (inactive)

Any idea what GI50 was measured for `Cc1ccc(-n2c(C)n[nH]c2=O)cc1` ?
> 100 µM (inactive)

Any idea what GI50 was measured for `N#Cc1ccc(-c2nc(C#N)c(N)o2)cc1` ?
> 10 µM (inactive)

Any idea what GI50 was measured for `Cc1ccc(S(=O)(=O)c2c(O)c3ccc(O)c(C)c3oc2=O)cc1` ?
> 100 µM (inactive)
